- Tested on: 435261-313-R-J1-PDC tumor spheroid viability
- experimental.details: Anticancer human tumor 435261-313-R-J1-PDC patient-derived colon adenocarcinoma cell line growth inhibition [PI3K]
- setup.conditions: second compound 0.316 µM; first compound 10 µM; hits give low values; spheroids with HUVEC and MSC
Values of viability, T/C strictly less than 10% map to Condition met, and values of at least 10% map to Condition not met.

Record excerpt, results attached:
molecule="CCCS(=O)(=O)Nc1ccc(F)c(C(=O)c2c[nH]c3ncc(-c4ccc(Cl)cc4)cc23)c1F + COc1c(OCCCN2CCOCC2)ccc2c3n(c(=NC(=O)c4cnc(N)nc4)nc12)CCN3" experimental_system="435261-313-R-J1-PDC tumor spheroid viability" category="Condition met"
molecule="CNC(=O)c1ccc(N2C(=S)N(c3ccc(C#N)c(C(F)(F)F)c3)C(=O)C2(C)C)cc1F + CC(Nc1ccc2c(c1)OCCn1cc(N3C(=O)OCC3C(F)F)nc1-2)C(N)=O" experimental_system="435261-313-R-J1-PDC tumor spheroid viability" category="Condition not met"
molecule="Cn1nccc1Nc1nccc(-c2ccn(C(CO)c3ccc(Cl)c(F)c3)c(=O)c2)n1 (stereo not drawn) + Cc1nc(NC(=O)N2CCCC2C(N)=O)sc1-c1ccnc(C(C)(C)C(F)(F)F)c1" experimental_system="435261-313-R-J1-PDC tumor spheroid viability" category="Condition met"
molecule="C#Cc1c(F)ccc2cc(O)cc(-c3ncc4c(N5CC6CCC(C5)N6)nc(OCC56CCCN5CC(F)C6)nc4c3F)c12 (stereo not drawn) + CC(Nc1ccc2c(c1)OCCn1cc(N3C(=O)OCC3C(F)F)nc1-2)C(N)=O" experimental_system="435261-313-R-J1-PDC tumor spheroid viability" category="Condition met"
molecule="C#Cc1c(F)ccc2cc(O)cc(-c3ncc4c(N5CC6CCC(C5)N6)nc(OCC56CCCN5CC(F)C6)nc4c3F)c12 (stereo not drawn) + Cc1nc(NC(=O)N2CCCC2C(N)=O)sc1-c1ccnc(C(C)(C)C(F)(F)F)c1" experimental_system="435261-313-R-J1-PDC tumor spheroid viability" category="Condition not met"
molecule="C=CC(=O)N1CCN(c2nc(=O)n(-c3c(C)ccnc3C(C)C)c3nc(-c4c(O)cccc4F)c(F)cc23)C(C)C1 (stereo not drawn) + COc1c(OCCCN2CCOCC2)ccc2c3n(c(=NC(=O)c4cnc(N)nc4)nc12)CCN3" experimental_system="435261-313-R-J1-PDC tumor spheroid viability" category="Condition met"
molecule="CC(C)NCC(C(=O)N1CCN(c2ncnc3c2C(C)CC3O)CC1)c1ccc(Cl)cc1 (stereo not drawn) + CC(Nc1ccc2c(c1)OCCn1cc(N3C(=O)OCC3C(F)F)nc1-2)C(N)=O" experimental_system="435261-313-R-J1-PDC tumor spheroid viability" category="Condition not met"

Now examine the next entry.
Does the reported viability, T/C of CC1(C)CCC(Nc2ncc(C(F)(F)F)c(-c3c[nH]c4c(P(C)(C)=O)c(C#N)ccc34)n2)CN1 (stereo not drawn) + CC(Nc1ccc2c(c1)OCCn1cc(N3C(=O)OCC3C(F)F)nc1-2)C(N)=O stay below 10%?
Condition met

* * *

- System: 435261-313-R-J1-PDC tumor spheroid viability
- experimental.details: Anticancer human tumor 435261-313-R-J1-PDC cell line growth inhibition [PI3K];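 further: spheroids exposed to compounds for 7 days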
- setup.conditions: second compound 0.1 µM; first compound 3.16 µM; hits give low values; spheroids with HUVEC and MSC
parameter.measured: viability, T/C

compound="CC(C)NCC(C(=O)N1CCN(c2ncnc3c2C(C)CC3O)CC1)c1ccc(Cl)cc1 (stereo not given) + COc1c(OCCCN2CCOCC2)ccc2c3n(c(=NC(=O)c4cnc(N)nc4)nc12)CCN3" reported_value=14.1%
compound="CC1(C)CCC(Nc2ncc(C(F)(F)F)c(-c3c[nH]c4c(P(C)(C)=O)c(C#N)ccc34)n2)CN1 (stereo not given) + Cc1nc(NC(=O)N2CCCC2C(N)=O)sc1-c1ccnc(C(C)(C)C(F)(F)F)c1" reported_value=32.4%
compound="CC1(C)CCC(CN2CCN(c3ccc(C(=O)NS(=O)(=O)c4ccc(NCC5CCOCC5)c([N+](=O)[O-])c4)c(Oc4cnc5[nH]ccc5c4)c3)CC2)=C(c2ccc(Cl)cc2)C1 + CC(Nc1ncnc2nc[nH]c12)c1cc2cccc(Cl)c2c(=O)n1-c1ccccc1" reported_value=94.5%
compound="C=CC(=O)N1CCN(c2nc(=O)n(-c3c(C)ccnc3C(C)C)c3nc(-c4c(O)cccc4F)c(F)cc23)C(C)C1 (stereo not given) + CC(Nc1ncnc2nc[nH]c12)c1cc2cccc(Cl)c2c(=O)n1-c1ccccc1" reported_value=109%

Report viability, T/C for CNC(=O)c1ccc(N2C(=S)N(c3ccc(C#N)c(C(F)(F)F)c3)C(=O)C2(C)C)cc1F + CC(Nc1ccc2c(c1)OCCn1cc(N3C(=O)OCC3C(F)F)nc1-2)C(N)=O
36.8%
